Target: HLA-A*02:01 (Homo sapiens, UniProt P04439, D140Y/D185E/D98H/E176V/E277Q/G131W/G231S/I119V/I121R/I166T/I218V/L300P/L318F/N151K/N90K/P208A/P217A/Q86G/Q94H/R138H/R169H/T345S)
Experiment: MHC binding assay (UV-ligand exchange, β2m ELISA, peptide exchange yield)
Details: MHC class I binding score; binding to HLA-A*02:01 ranged by peptide exchange yield (UV-ligand exchange, β2m ELISA)
Source text: Candidate peptides for T cell based therapies according to the present invention were further tested for their MHC binding capacity (affinity). The individual peptide-MHC complexes were produced by UV-ligand exchange, where a UV-sensitive peptide is cleaved upon UV-irradiation, and exchanged with the peptide of interest as analyzed. Only peptide candidates that can effectively bind and stabilize the peptide-receptive MHC molecules prevent dissociation of the MHC complexes. […]
metric: Peptide exchange

                                   substance        measured_value
 0  618 (VLFDSESIGIYV; listed as Homo sapiens) [compound 618]    ″+++″ (≧50% = +++)
 1  159 (GLVGNPLPSV; listed as Homo sapiens) [compound 159]  ″++++″ (≧75% = ++++)
 2  451 (LLLLDTVTMQV; listed as Homo sapiens) [compound 451]      ″++″ (≧20% = ++)
 3  465 (QLCDLNAEL; listed as Homo sapiens) [compound 465]    ″+++″ (≧50% = +++)
 4  183 (FGLDLVTEL; listed as Homo sapiens) [compound 183]    ″+++″ (≧50% = +++)
 5  553 (SLLNQDLHWSL; listed as Homo sapiens) [compound 553]  ″++++″ (≧75% = ++++)
 6  619 (ALQDRVPLA; listed as Homo sapiens) [compound 619]    ″+++″ (≧50% = +++)
 7  317 (SLAALVVHV; listed as Homo sapiens) [compound 317]    ″+++″ (≧50% = +++)
 8  225 (SLLKVLPAL; listed as Homo sapiens) [compound 225]    ″+++″ (≧50% = +++)
 9  94 (YLIDIKTIAI; listed as Homo sapiens) [compound 94]      ″++″ (≧20% = ++)
10  453 (KLLEATSAV; listed as Homo sapiens) [compound 453]      ″++″ (≧20% = ++)
11  427 (ALLPLSPYL; listed as Homo sapiens) [compound 427]    ″+++″ (≧50% = +++)
12  67 (TLLAEALVTV; listed as Homo sapiens) [compound 67]    ″+++″ (≧50% = +++)
13  325 (FIMPATVADATAV; listed as Homo sapiens) [compound 325]    ″+++″ (≧50% = +++)
14  398 (KLLEEDGTIITL; listed as Homo sapiens) [compound 398]      ″++″ (≧20% = ++)
15  336 (ILLTAIVQV; listed as Homo sapiens) [compound 336]    ″+++″ (≧50% = +++)
16  616 (VLIDEVESL; listed as Homo sapiens) [compound 616]    ″+++″ (≧50% = +++)
17  188 (GLFPVTPEAV; listed as Homo sapiens) [compound 188]    ″+++″ (≧50% = +++)
18  277 (LLPPLESLATV; listed as Homo sapiens) [compound 277]      ″++″ (≧20% = ++)
19  408 (VLDDSIYLV; listed as Homo sapiens) [compound 408]      ″++″ (≧20% = ++)
20  399 (YLFEPLYHV; listed as Homo sapiens) [compound 399]    ″+++″ (≧50% = +++)
21  30 (LILDWVPYI; listed as Homo sapiens) [compound 30]    ″+++″ (≧50% = +++)
22  559 (VTVPPGPSL; listed as Homo sapiens) [compound 559]      ″++″ (≧20% = ++)
23  132 (LLVEQPPLAGV; listed as Homo sapiens) [compound 132]    ″+++″ (≧50% = +++)
24  2 (SLLEADPFL; listed as Homo sapiens) [compound 2]    ″+++″ (≧50% = +++)
25  322 (TLMTSLPAL; listed as Homo sapiens) [compound 322]    ″+++″ (≧50% = +++)
26  303 (AILPQLFMV; listed as Homo sapiens) [compound 303]  ″++++″ (≧75% = ++++)
27  566 (VIADGGIQNV; listed as Homo sapiens) [compound 566]      ″++″ (≧20% = ++)
28  36 (YVLEDLEVTV; listed as Homo sapiens) [compound 36]      ″++″ (≧20% = ++)
29  458 (SLIDKLYNI; listed as Homo sapiens) [compound 458]      ″++″ (≧20% = ++)
30  44 (ILDPISSGFLL; listed as Homo sapiens) [compound 44]      ″++″ (≧20% = ++)
31  240 (ILLEQAFYL; listed as Homo sapiens) [compound 240]    ″+++″ (≧50% = +++)
32  164 (ALLPQPKNLTV; listed as Homo sapiens) [compound 164]    ″+++″ (≧50% = +++)
33  249 (LLDGFLVNV; listed as Homo sapiens) [compound 249]    ″+++″ (≧50% = +++)
34  52 (FLLAHGLGFLL; listed as Homo sapiens) [compound 52]  ″++++″ (≧75% = ++++)
35  147 (SLLEAVSFL; listed as Homo sapiens) [compound 147]    ″+++″ (≧50% = +++)
36  307 (ALPVSLPQI; listed as Homo sapiens) [compound 307]    ″+++″ (≧50% = +++)
37  60 (SLTIDGIYYV; listed as Homo sapiens) [compound 60]  ″++++″ (≧75% = ++++)
